Reference source for all entries: the supplement of paper PMC3724861

Tested on: Caupolican (Caup) homeodomain DNA-binding domain
Sequence: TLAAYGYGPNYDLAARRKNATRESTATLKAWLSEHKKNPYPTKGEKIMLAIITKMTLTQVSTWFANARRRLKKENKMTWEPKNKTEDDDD
Protocol Description: PBM E-score (8-mer, recovered from the published 9-mer minima) (E-score (dimensionless, -0.5 to 0.5)); higher = stronger relative binding preference, active = 0.31 or more
The full list was thinned out, with hits kept by preference. The hit rate among all sequences tested is not known here.
Please enter true (1) where PBM E-score is greater than or equal to 0.2, and false (0) where it is lower.

[
  {
    "Residue Sequence": "AAGCATCG",
    "Target Or Test System": "Caupolican (Caup) homeodomain DNA-binding domain",
    "Cat": "false (0)"
  },
  {
    "Residue Sequence": "GACATACA",
    "Target Or Test System": "Caupolican (Caup) homeodomain DNA-binding domain",
    "Cat": "true (1)"
  },
  {
    "Residue Sequence": "AACATACT",
    "Target Or Test System": "Caupolican (Caup) homeodomain DNA-binding domain",
    "Cat": "true (1)"
  },
  {
    "Residue Sequence": "ACAAAGGA",
    "Target Or Test System": "Caupolican (Caup) homeodomain DNA-binding domain",
    "Cat": "false (0)"
  },
  {
    "Residue Sequence": "CCATGAAC",
    "Target Or Test System": "Caupolican (Caup) homeodomain DNA-binding domain",
    "Cat": "false (0)"
  },
  {
    "Residue Sequence": "ATATCGTC",
    "Target Or Test System": "Caupolican (Caup) homeodomain DNA-binding domain",
    "Cat": "false (0)"
  },
  {
    "Residue Sequence": "TACATAAA",
    "Target Or Test System": "Caupolican (Caup) homeodomain DNA-binding domain",
    "Cat": "true (1)"
  },
  {
    "Residue Sequence": "GACATACC",
    "Target Or Test System": "Caupolican (Caup) homeodomain DNA-binding domain",
    "Cat": "false (0)"
  },
  {
    "Residue Sequence": "ACATGAAT",
    "Target Or Test System": "Caupolican (Caup) homeodomain DNA-binding domain",
    "Cat": "true (1)"
  },
  {
    "Residue Sequence": "TCCATACA",
    "Target Or Test System": "Caupolican (Caup) homeodomain DNA-binding domain",
    "Cat": "false (0)"
  },
  {
    "Residue Sequence": "AACATACC",
    "Target Or Test System": "Caupolican (Caup) homeodomain DNA-binding domain",
    "Cat": "true (1)"
  }
]

----------
Tested on: Caupolican (Caup) homeodomain DNA-binding domain
Sequence: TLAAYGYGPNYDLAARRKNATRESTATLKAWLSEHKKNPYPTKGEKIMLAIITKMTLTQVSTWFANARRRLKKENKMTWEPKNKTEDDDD
Protocol Description: PBM E-score (8-mer, recovered from the published 9-mer minima) (E-score (dimensionless, -0.5 to 0.5)); higher = stronger relative binding preference, active = 0.31 or more
This excerpt belongs to a sample that is enriched for hits. The hit rate among all sequences tested is not known here.
Possible outcomes: active, inactive

[
  {
    "Residue Sequence": "ACCATGTC",
    "Cat": "active"
  },
  {
    "Residue Sequence": "AGTAACAA",
    "Cat": "inactive"
  },
  {
    "Residue Sequence": "AACAAATA",
    "Cat": "inactive"
  },
  {
    "Residue Sequence": "CACAAGTA",
    "Cat": "inactive"
  },
  {
    "Residue Sequence": "CAATTGTA",
    "Cat": "inactive"
  },
  {
    "Residue Sequence": "AACAACAT",
    "Cat": "active"
  },
  {
    "Residue Sequence": "GACAAGTC",
    "Cat": "inactive"
  },
  {
    "Residue Sequence": "GGTAACAA",
    "Cat": "active"
  },
  {
    "Residue Sequence": "TGTAAACA",
    "Cat": "active"
  },
  {
    "Residue Sequence": "CTTAAACA",
    "Cat": "inactive"
  },
  {
    "Residue Sequence": "AACAACTA",
    "Cat": "active"
  },
  {
    "Residue Sequence": "CACAAGTG",
    "Cat": "inactive"
  },
  {
    "Residue Sequence": "CCCTAGCG",
    "Cat": "inactive"
  },
  {
    "Residue Sequence": "CGCCCATA",
    "Cat": "inactive"
  },
  {
    "Residue Sequence": "ACCATGCC",
    "Cat": "inactive"
  },
  {
    "Residue Sequence": "GAGCACAC",
    "Cat": "inactive"
  },
  {
    "Residue Sequence": "CGTAACAA",
    "Cat": "inactive"
  },
  {
    "Residue Sequence": "TGTAACAA",
    "Cat": "active"
  },
  {
    "Residue Sequence": "AACAACGT",
    "Cat": "inactive"
  },
  {
    "Residue Sequence": "CAGTTAGA",
    "Cat": "inactive"
  },
  {
    "Residue Sequence": "AACAAGTA",
    "Cat": "active"
  },
  {
    "Residue Sequence": "GCCATGCA",
    "Cat": "inactive"
  },
  {
    "Residue Sequence": "CCTGTCTA",
    "Cat": "inactive"
  },
  {
    "Residue Sequence": "CCCATGGA",
    "Cat": "inactive"
  },
  {
    "Residue Sequence": "ACAATGTA",
    "Cat": "inactive"
  },
  {
    "Residue Sequence": "CGTAAATC",
    "Cat": "inactive"
  },
  {
    "Residue Sequence": "AGATCGGC",
    "Cat": "inactive"
  },
  {
    "Residue Sequence": "AACAACTC",
    "Cat": "inactive"
  },
  {
    "Residue Sequence": "AACAAGTG",
    "Cat": "active"
  },
  {
    "Residue Sequence": "TTCAACAA",
    "Cat": "inactive"
  },
  {
    "Residue Sequence": "CCCATGTC",
    "Cat": "inactive"
  },
  {
    "Residue Sequence": "CATCATGA",
    "Cat": "inactive"
  },
  {
    "Residue Sequence": "CGGTCATA",
    "Cat": "inactive"
  },
  {
    "Residue Sequence": "CATCTTGC",
    "Cat": "inactive"
  }
]

----------
PBM E-score values for the sequences below.
System: Caupolican (Caup) homeodomain DNA-binding domain
Sequence: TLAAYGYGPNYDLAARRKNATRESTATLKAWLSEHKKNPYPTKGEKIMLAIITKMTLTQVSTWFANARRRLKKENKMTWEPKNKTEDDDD
Protocol Description: PBM E-score (8-mer, recovered from the published 9-mer minima) (E-score (dimensionless, -0.5 to 0.5)); Drosophila protein; higher = stronger relative binding preference, active = 0.31 or more
The sample as a whole holds a higher share of hits than the screen did. The true hit rate is not given.

[
  {
    "Residue Sequence": "TCTACACA",
    "Target Or Test System": "Caupolican (Caup) homeodomain DNA-binding domain",
    "PBM E-score": "0.157 (inactive)"
  },
  {
    "Residue Sequence": "TATTGTCA",
    "Target Or Test System": "Caupolican (Caup) homeodomain DNA-binding domain",
    "PBM E-score": "0.225 (inactive)"
  },
  {
    "Residue Sequence": "TTGATCAA",
    "Target Or Test System": "Caupolican (Caup) homeodomain DNA-binding domain",
    "PBM E-score": "0.115 (inactive)"
  },
  {
    "Residue Sequence": "AGTACAAA",
    "Target Or Test System": "Caupolican (Caup) homeodomain DNA-binding domain",
    "PBM E-score": "0.26 (inactive)"
  },
  {
    "Residue Sequence": "ATGCGAAC",
    "Target Or Test System": "Caupolican (Caup) homeodomain DNA-binding domain",
    "PBM E-score": "0.0459 (inactive)"
  },
  {
    "Residue Sequence": "AGGTGTAA",
    "Target Or Test System": "Caupolican (Caup) homeodomain DNA-binding domain",
    "PBM E-score": "0.2 (inactive)"
  },
  {
    "Residue Sequence": "GCTTGTCA",
    "Target Or Test System": "Caupolican (Caup) homeodomain DNA-binding domain",
    "PBM E-score": "0.352 (active)"
  },
  {
    "Residue Sequence": "CCTTGTCA",
    "Target Or Test System": "Caupolican (Caup) homeodomain DNA-binding domain",
    "PBM E-score": "0.342 (active)"
  },
  {
    "Residue Sequence": "CGTACACG",
    "Target Or Test System": "Caupolican (Caup) homeodomain DNA-binding domain",
    "PBM E-score": "0.341 (active)"
  },
  {
    "Residue Sequence": "GCGTGTAA",
    "Target Or Test System": "Caupolican (Caup) homeodomain DNA-binding domain",
    "PBM E-score": "0.327 (active)"
  },
  {
    "Residue Sequence": "TGTACACA",
    "Target Or Test System": "Caupolican (Caup) homeodomain DNA-binding domain",
    "PBM E-score": "0.407 (active)"
  },
  {
    "Residue Sequence": "ACTTGTCA",
    "Target Or Test System": "Caupolican (Caup) homeodomain DNA-binding domain",
    "PBM E-score": "≥ 0.378 (active)"
  },
  {
    "Residue Sequence": "AGATCGGA",
    "Target Or Test System": "Caupolican (Caup) homeodomain DNA-binding domain",
    "PBM E-score": "0.0416 (inactive)"
  },
  {
    "Residue Sequence": "ACTTGTCG",
    "Target Or Test System": "Caupolican (Caup) homeodomain DNA-binding domain",
    "PBM E-score": "0.266 (inactive)"
  },
  {
    "Residue Sequence": "CCGTGTGA",
    "Target Or Test System": "Caupolican (Caup) homeodomain DNA-binding domain",
    "PBM E-score": "0.0813 (inactive)"
  },
  {
    "Residue Sequence": "CCGTGTAA",
    "Target Or Test System": "Caupolican (Caup) homeodomain DNA-binding domain",
    "PBM E-score": "0.35 (active)"
  },
  {
    "Residue Sequence": "ACATACAC",
    "Target Or Test System": "Caupolican (Caup) homeodomain DNA-binding domain",
    "PBM E-score": "0.352 (active)"
  },
  {
    "Residue Sequence": "CGTACACC",
    "Target Or Test System": "Caupolican (Caup) homeodomain DNA-binding domain",
    "PBM E-score": "0.205 (inactive)"
  }
]
